What % AUC to SRF813-hIgG1 was measured for each of the following?
test_target: T1, human PVRIG-mFc protein (Acro, PVG-H5253) (human, UniProt Q6DKI7 41-171, limits assumed)
T1 construct: bought protein
T1 sequence (looked up): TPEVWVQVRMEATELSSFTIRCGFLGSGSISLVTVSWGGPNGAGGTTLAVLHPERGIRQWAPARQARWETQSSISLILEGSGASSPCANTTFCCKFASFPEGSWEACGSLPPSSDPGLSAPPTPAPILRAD
method_summary: FACS competition, PVRIG-mFc binding to CHO-K1-CD112 cells, competitor CD112 on cells
Answers are plain numbers, in %.

Study these solved cases before continuing.
Input PVRIG-A50 (Fc fusion, heavy chain antibody VHH-hinge-CH2-CH3, human IgG1 constant part; also called PVRIG-50; not shown: human IgG1 hinge-CH2-CH3) EVQLVESGGGLVQPGGSLRLSCAASGFTFSYYDMSWVRQAPGKGLEWVSTINSNGGRTSYVDSVKGRFTISRDNTKNTLYLQMNSLKPEDTAVYYCVEGDPHNFGLENLSLRDFGSWGQGTQVTVSS , output reported % AUC to SRF813-hIgG1.
81

# return recorded % AUC to SRF813-hIgG1 for entry PVRIG-A105 (Fc fusion, heavy chain antibody VHH-hinge-CH2-CH3, human IgG1 constant part; not shown: human IgG1 hinge-CH2-CH3) EVQLVESGGGLVQAGGSLRLSCAASGRTFDRHTMTWFRQAPGKEREFVATASRIPGDTYYSHSVKGRFTISRDNAKNTVYLQLNNLKPEDTAVYYCAATSAYCSEVDCYEKGSWYDNWGQGIQVTVSS
84.1

For the binder PVRIG-A104 (Fc fusion, heavy chain antibody VHH-hinge-CH2-CH3, human IgG1 constant part; not shown: human IgG1 hinge-CH2-CH3) EVQVVESGGGLVQAGGSLRLSCAASGRTRSMYVMGWFRQAPGKEREFVGRIKWSGDTTYTSYADFVKGRFTLYGNQARNTVYLQMNSLKPEDTAVYYCYRRSWTNTKLYWGKGIQVTVSS , report % AUC to SRF813-hIgG1.
111

State the recorded % AUC to SRF813-hIgG1 for every item in the following list.
1. PVRIG-A118 (Fc fusion, heavy chain antibody VHH-hinge-CH2-CH3, human IgG1 constant part; not shown: human IgG1 hinge-CH2-CH3) QVQLVESGGGLVQAGGSLRLSCAASETYFDLYVMGWYRQAPGKDRELVATITYTGSIKIVDSVKDRFTISRGDAKNTVSLQMSSLKPEDTAVYFCNADPSGLGRKVYWGQGTQVTVSS
2. PVRIG-A35 (Fc fusion, heavy chain antibody VHH-hinge-CH2-CH3, human IgG1 constant part; not shown: human IgG1 hinge-CH2-CH3) EVQVVESGGGLVQSGGSLRLSCAASGRTRSMYVMGWFRQAPGKEREFVGRIKWSGDTTYTSYADFVKGRFTLYGNQARNTVYLQMNSLKPEDTAVYYCNGRSRFNVINAWGTGTLVTVAS

[75.6, 126]
